Molecular target: SIK3 (Homo sapiens, UniProt Q9Y2K2)
Construct: purchased SignalChem S12-11G-100
Sequence (Q9Y2K2 59-365 limits assumed): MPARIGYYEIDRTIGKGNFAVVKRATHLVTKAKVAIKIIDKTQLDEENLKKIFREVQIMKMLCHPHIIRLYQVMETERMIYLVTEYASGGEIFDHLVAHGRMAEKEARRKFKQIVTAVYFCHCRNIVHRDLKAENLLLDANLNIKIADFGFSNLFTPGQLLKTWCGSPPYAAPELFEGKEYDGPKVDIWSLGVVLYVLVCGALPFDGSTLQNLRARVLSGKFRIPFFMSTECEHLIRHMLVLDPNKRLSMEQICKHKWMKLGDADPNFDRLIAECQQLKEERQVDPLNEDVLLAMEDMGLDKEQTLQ
Experiment: ADP-Glo kinase assay, SIK3
Assay type: biochemical
Quantity: IC50

The value of IC50 measured for the molecule COCC(C)(O)c1ccn2c(-c3cc(OC)c(C(=O)NC4CC4)c(OC(F)F)c3)cnc2c1 (centres unmarked) [Cpd 182] turned out to be 10 to 100 nM

The value of IC50 measured for the molecule COc1cc(-c2cnn3cc(C4(O)CCC4)ccc23)cc(OC(F)F)c1C(=O)N[C@@H]1C[C@@H]1F [Cpd 266] turned out to be 0.01 to 10 nM

The value of IC50 measured for the molecule COc1cc(-c2cnc3cc(C4(C#N)CN(C(C)=O)C4)ccn23)cc(OC(F)F)c1C(=O)NC1CC1 [Cpd 122] turned out to be 10 to 100 nM

The value of IC50 measured for the molecule COc1cc(-c2cnc3cc(C4(O)CCC4)ccn23)cc(OC(F)F)c1C(=O)NC1CC1 [Cpd 173] turned out to be 10 to 100 nM

The value of IC50 measured for the molecule COc1cc(-c2cnc3cc(C(C)(C)O)ccn23)cc(OC(F)F)c1C(=O)N[C@@H]1C[C@@H]1F [Cpd 211] turned out to be 0.01 to 10 nM

The value of IC50 measured for the molecule COc1cc(-c2cnc3cc(C4(CO)CC4)ccn23)cc(OC(F)F)c1C(=O)NC1CC1 [Cpd 115] turned out to be 0.01 to 10 nM

The value of IC50 measured for the molecule COc1cc(-c2cnc3cc(C4(C(=O)NCCO)CC4)ccn23)cc(OC(F)F)c1C(=O)NC1CC1 [Cpd 147] turned out to be 10 to 100 nM

The value of IC50 measured for the molecule COc1cc(-c2cnc3cc(C(C)(C)C#N)ccn23)cc(OC(F)F)c1C(=O)N(C)C1CC1 [Cpd 84] turned out to be 100 to 500 nM
